System: BT-549 breast
Assay: NCI tumour cell line growth inhibition, 48 h
Give TGI for every item shown.

Fill in TGI for CN(/N=C(\C(=O)O)c1ccccc1)C1=NCCN1 tested with BT-549 breast. > 100 µM

Fill in TGI for Cc1cc(Nc2ccc3c(c2)OCO3)c2cc3c(cc2n1)OCO3 tested with BT-549 breast. 26.2 µM

Fill in TGI for COC(=O)c1cc(C)ccc1/C=C1\Cc2cccc(C)c2C1=O tested with BT-549 breast. > 100 µM

Fill in TGI for C=CCOC(=O)C[C@H](NC(=O)[C@H](Cc1ccc(O)cc1)NCC(F)(F)F)C(=O)OCC=C tested with BT-549 breast. > 100 µM

Fill in TGI for CC1=NN(C(=O)c2ccc(Cl)cc2)C(=O)C1N=Nc1ccc(S(=O)(=O)Nc2ncccn2)cc1 (stereo not given) tested with BT-549 breast. > 100 µM

----------
Tested on: TK-10 renal
Assay: NCI tumour cell line growth inhibition, 48 h
ATTRIBUTE_MEASURED: TGI

Supply measured TGI of CC(O)CCc1ccc(Oc2c3ccccc3nc3occc23)cc1 (stereo not given) in your reply. 7.75 µM

Supply measured TGI of CN1CCN(C(=S)N(C(=O)c2ccco2)C2CCCCC2)CC1 in your reply. > 100 µM

Supply measured TGI of COc1cccc2c(Nc3ccc(S(=O)(=O)N=C(N)N)cc3)c3ccc([N+](=O)[O-])cc3nc12 in your reply. > 100 µM

Supply measured TGI of O=C(N/N=C/c1c(Cl)cccc1Cl)c1cccnc1Nc1cccc(C(F)(F)F)c1 in your reply. 79.2 µM

Supply measured TGI of Cc1cc(C2CC(O)C(CO)O2)c(Cl)cc1Cl (stereo not given) in your reply. > 100 µM

Supply measured TGI of CC1CC(=O)C2CC(CO)=CCCC2C1(C)CC/C(=C/CO)CO (stereo not given) in your reply. > 100 µM

Supply measured TGI of CC1=C2C(=O)c3ccccc3C(=O)[C@H]2C[C@@H](N2CCCC2=O)O1 in your reply. > 100 µM

Supply measured TGI of COc1cccc(N=Cc2cc(OC)c(OC)c(OC)c2)c1 in your reply. > 100 µM

Supply measured TGI of COC1(OC)CC(CO)(CNc2nc(N)nc(Cl)c2C=O)C1 in your reply. > 100 µM

Supply measured TGI of S=C(Nc1ccccc1)Nc1ccccc1SC(/C=C/NNC1=NC(c2ccccc2)C(c2ccccc2)=NN1)c1ccccc1 (stereo not given) in your reply. > 100 µM

----------
Give TGI for every item shown.
System: HOP-18 NSCLC
Assay: NCI tumour cell line growth inhibition, 48 h
Only the number, expressed in µM, is required.

Supply measured TGI of CC(C)(CN1CCCCC1)C(=O)/C=C/c1ccc(Cl)c(Cl)c1 in your reply. 2.85

Supply measured TGI of CC[C@@]1(O)C(=O)OCc2c1cc1n(c2=O)Cc2c-1nc1ccccc1c2Cl in your reply. 18.3

Supply measured TGI of CCOP1(=O)C=CC(Cl)=C(C)C1 (stereo unspecified) in your reply. 31.2

----------
System: UO-31 renal
Assay: NCI tumour cell line growth inhibition, 48 h
Where a SMILES comes first, the peptide text is derived from it. [ ]: non-standard residue; d: D form. Ac5c = NC1(C(=O)O)CCCC1
Give TGI for every item shown.

Supply measured TGI of CC(=O)OC1CCC2(C)C(CCC3C4CC=C(C5(C)OCCO5)C4(C)CCC32)C1 (configuration not stated) in your reply. 62 µM

Supply measured TGI of CN(C)CCCNCc1ccc(-c2ccc(F)c(Cl)c2)o1 in your reply. 26.9 µM

Supply measured TGI of CC(=O)N(O)CCCCCNC(=O)CCC(=O)N(O)CCCCCNC(=O)CCC(=O)N(O)CCCCCN in your reply. > 100 µM

Supply measured TGI of CCOC(=O)/C(SC#N)=C(/N)N1CCCC1 in your reply. > 100 µM

Supply measured TGI of ClC1=C(Cl)C(Cl)(Cl)SS1 in your reply. > 6.06 µM

Supply measured TGI of N#Cc1c(Br)n(C2OC(CO)C(O)C2O)c2ncn3ccnc3c12 (configuration not stated) in your reply. > 100 µM

Supply measured TGI of CN1CCN(CC(=O)N2c3ccccc3Sc3cc4ccccc4cc32)CC1 in your reply. 26.7 µM

Supply measured TGI of COc1ccc2c(c1)[n+]([O-])c(C#N)c(NC(=O)c1cccs1)[n+]2[O-] in your reply. > 100 µM

Supply measured TGI of Cc1nn(CCO)c(C)c1N=[N+]([O-])c1c(C)nn(CCO)c1C in your reply. 2.15 µM

Supply measured TGI of CCC(=O)OC1CCC2C3CCC(=O)OC3C(C)(CCC(=O)O)CC12C (configuration not stated) in your reply. > 100 µM

Supply measured TGI of Cc1ccccc1N(CC(=O)O)S(=O)(=O)c1ccccc1 in your reply. > 100 µM

Supply measured TGI of C/C(=N\NC(=O)c1ccncc1)c1cccc(F)c1 in your reply. > 10 µM

Supply measured TGI of Cc1cc(Cc2cc(Cc3cc(C)cc(C(C)(C)C)c3O)c(C)cc2C)c(O)c(C(C)(C)C)c1 in your reply. 32 µM

Supply measured TGI of c1ccc2c(c1)CCN2CCN1CCc2ccccc21 in your reply. > 10 µM

Supply measured TGI of O=C(O)CCCNS(=O)(=O)c1ccccc1 in your reply. > 100 µM

Supply measured TGI of Nc1nc(N)c2c(Cl)c(CNc3ccc(C(=O)NC(CC(=O)O)C(=O)O)cc3)ccc2n1 (configuration not stated) in your reply. > 100 µM

Supply measured TGI of CC(C(=O)O)c1ccc(-n2nnc3c(=O)[nH][nH]c(=O)c32)cc1 (configuration not stated) in your reply. > 100 µM

Supply measured TGI of c1ccc([Si](OCCN2CC2)(c2ccccc2)c2ccccc2)cc1 in your reply. 28.4 µM

Supply measured TGI of Nc1ccc(I)cn1 in your reply. > 100 µM

Supply measured TGI of CCOC(=O)c1cn2c(n1)sc1cc(C)c(C)cc12 in your reply. 35.4 µM

Supply measured TGI of COC(=O)C1(NC(=O)C(C)NC(=O)C(CCCCN)NC(=O)C(CC(C)C)NC(C)=O)CCCC1 (configuration not stated) (Ac-LKA[Ac5c]-OMe; configuration not given here) in your reply. > 100 µM

Supply measured TGI of CCCCOC(=O)C(=O)C(CC(CC)C(=O)c1ccccc1)C(=O)C=C(C)C (configuration not stated) in your reply. > 100 µM

----------
Tested on: NCI-H522 lung
Test: NCI tumour cell line growth inhibition, 48 h
Give TGI for every item shown.
Only the number, expressed in µM, is required.

Supply measured TGI of O=CN/N=C/c1ccc(Cl)c([N+](=O)[O-])c1 in your reply. 19.9

Supply measured TGI of O=C(Nc1ccc2ncccc2c1)c1cc2c(cc1Cl)Sc1nccn1S2(=O)=O in your reply. 24.5

Supply measured TGI of COc1cc(/C=C2\N=C(c3ccccc3)N(c3nc4ccc(Sc5ccccc5)cc4[nH]3)C2=O)ccc1O in your reply. 48.3

Supply measured TGI of O=C(N/N=C(\CN1CCN(c2cc3[nH]cc(C(=O)O)c(=O)c3cc2F)CC1)c1ccc(Cl)cc1)c1ccncc1 in your reply. 52.9

Supply measured TGI of Cc1cc(Cc2cc(Cc3cc(C)cc(C(C)(C)C)c3O)c(C)cc2C)c(O)c(C(C)(C)C)c1 in your reply. 34

Supply measured TGI of COC(=O)c1cc(C)ccc1/C=C1\Cc2cccc(C)c2C1=O in your reply. 58.7

Supply measured TGI of COc1cc2c(cc1OCc1ccccc1)N=CC1C[C@@H](O)CN1C2=O (some centres not stated) in your reply. 7.43

Supply measured TGI of CC(=O)OC1Oc2ccccc2-c2oc(=O)c(-c3ccc(F)cc3)cc21 (configuration not stated) in your reply. 78.3

Supply measured TGI of O=C(N/N=C/c1cc(Cl)cc(Cl)c1[O-])c1ccccc1O.O=C(N/N=C/c1cc(Cl)cc(Cl)c1[O-])c1ccccc1O.[Cl-].[Fe+3] in your reply. 31.5

Supply measured TGI of COc1cc2c[n+](C)c3c4cc(OC)c(OC)cc4c(OCc4ccccc4)cc3c2cc1OC in your reply. 1.5

Supply measured TGI of Cc1cc(C)n(C(=O)CSc2nc3ccc(I)cc3c(=O)n2Cc2ccccc2)n1 in your reply. 62.1

Supply measured TGI of C(=C1c2ccccc2-c2ccccc21)c1ccncc1 in your reply. 20.4

Supply measured TGI of NCCc1ccc2oc3cc(=O)c4ccccc4c-3nc2c1 in your reply. 7.66

Supply measured TGI of O=C(Nc1ccc([As]=[As]c2ccc(NC(=O)c3ccccc3)cc2)cc1)c1ccccc1 (configuration not stated) in your reply. 0.217

Supply measured TGI of CC(C)OC(=O)c1cc(NS(=O)(=O)c2ccc3ccccc3c2)cc(C(=O)OC(C)C)c1 in your reply. 45.9

Supply measured TGI of CC1(C)C2CCC13C(=O)C1OC3(C2)C2C(=O)N(c3ccccc3)C(=O)C12 (configuration not stated) in your reply. 49.1

Supply measured TGI of S=C1N=C2C(=N1)n1c3c(c4ccccc41)CCCC23 (configuration not stated) in your reply. 63.3

Supply measured TGI of O=C(/C=C/c1ccc(Br)cc1)c1ccc(NCc2nc3ccccc3[nH]2)cc1 in your reply. 19.4
